All figures here come from ChEMBL document CHEMBL3997802.

Molecular target: Nucleoside diphosphate kinase B (Homo sapiens)
Sequence (P22392 whole entry): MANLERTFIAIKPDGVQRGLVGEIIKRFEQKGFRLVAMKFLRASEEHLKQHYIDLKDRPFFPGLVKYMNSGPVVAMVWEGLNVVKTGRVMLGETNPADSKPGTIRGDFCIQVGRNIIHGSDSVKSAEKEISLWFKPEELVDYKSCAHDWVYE
Test readout: pKd
For clarity, pKd is expressed as the negative log10 of concentration in mol/L.

Form entry - test system: Nucleoside diphosphate kinase B (Homo sapiens); read-out: pKd; molecule: `CN1CCN(c2cc3nc4n(c(=O)c3cc2F)CC/C4=C\c2ccc(NC(=O)CCN3CCN(CCO)CC3)cc2)CC1` 5.74

----------
Assay: Inhibition of 5'-biotin-labeled c-Myc Pu18 G-quadruplex DNA (unknown origin) interaction with His-tagged NM23-H2 assessed as ratio of Kd for NM23-H2-DNA complex in presence of compound to Kd for […]-DNA complex in absence of compound at 20 uM preincubated with NM23-H2 for 1 hr followed by addition of DNA measured after overnight incubation by ELISA
Test readout: Ratio
Just the number, please.

Record excerpt, results attached:
O=C(CCN1CCCC1)Nc1ccc(/C=C2\CCn3c2nc2cc(NC(=O)CCN4CCCC4)ccc2c3=O)cc1 | 2.5
CCN(CC)CCC(=O)Nc1ccc(/C=C2\CCn3c2nc2cc(N4CCN(C)CC4)c(F)cc2c3=O)cc1 | 1.4

Next compound, please.
I am curious: what Ratio value has been reported for `CCN(CC)CCNC(=O)c1ccc(/C=C2\CCn3c2nc2cc(N4CCN(C)CC4)c(F)cc2c3=O)cc1` ? 2.7

----------
Quick list: ΔTm per entry.
Test: Stabilization of 5'-FAM/3'-TAMRA labeled c-Myc Pu18 G-quadruplex DNA (unknown origin) assessed as change in melting temperature at 1 uM after overnight incubation by FRET assay
The answer is to be given in °C; state only the numeric part.

Record excerpt, results attached:
O=C(NCCCN1CCCC1)c1ccc(/C=C2\CCn3c2nc2cc(NCCN4CCCC4)c(F)cc2c3=O)cc1 | 12.1
CCN(CC)CCNC(=O)c1ccc(/C=C2\CCn3c2nc2cc(NCCCN4CCCC4)c(F)cc2c3=O)cc1 | 12.9
O=C(CCN1CCCC1)Nc1ccc(/C=C2\CCn3c2nc2cc(NC(=O)CCN4CCCC4)ccc2c3=O)cc1 | 8.5

Next compound, please.
I am curious: what ΔTm value has been reported for `O=C(CCN1CCCC1)Nc1ccc(/C=C2\CCCn3c2nc2cc(NC(=O)CCN4CCCC4)ccc2c3=O)cc1` ? 3.4

----------
Assay: Inhibition of 5'-biotin-labeled c-Myc Pu18 G-quadruplex DNA (unknown origin) interaction with His-tagged NM23-H2 assessed as ratio of Kd for NM23-H2-DNA complex in presence of compound to Kd for […]-DNA complex in absence of compound at 20 uM preincubated with NM23-H2 for 1 hr followed by addition of DNA measured after overnight incubation by ELISA
Test readout: Ratio
Just the number, please.

Record excerpt, results attached:
O=C(CCN1CCCC1)Nc1ccc(/C=C2\CCCn3c2nc2cc(NC(=O)CCN4CCCC4)ccc2c3=O)cc1 | 2.4
CN1CCN(c2cc3nc4n(c(=O)c3cc2F)CC/C4=C\c2ccc(NC(=O)CCN3CCCC3)cc2)CC1 | 1.6
O=C(NCCCN1CCCC1)c1ccc(/C=C2\CCn3c2nc2cc(NCCN4CCCC4)c(F)cc2c3=O)cc1 | 4.3
CCN(CC)CCNC(=O)c1ccc(/C=C2\CCn3c2nc2cc(NCCCN4CCCC4)c(F)cc2c3=O)cc1 | 3.4

Next compound, please.
I am curious: what Ratio value has been reported for `CN1CCN(c2cc3nc4n(c(=O)c3cc2F)CCC/C4=C\c2ccc(NC(=O)CCN3CCCC3)cc2)CC1` ? 1.3
